B1: HDV Ribozyme (parent)
chain: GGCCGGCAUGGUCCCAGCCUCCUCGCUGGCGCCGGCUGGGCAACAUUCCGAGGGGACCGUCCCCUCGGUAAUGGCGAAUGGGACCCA

Variants of: B1
method.summary: self-cleavage, relative activity (ratio to wild type); higher = more cleavage; co-transcriptional
variants and their reported self-cleavage
Hey, just send me the number, nothing else.

Known results for variants:
GGCCGGCAUGGUCCCAGCCUCCUCGCUGGCGCCGGCUGGGCAACAUUCCGAGGGGACCGUACCCUCGGUAAUGGCGAAUGGGAACCA    0.831
GGCCGGCAUGGUCCCAGCCUCCUCGCUGGCGCCGGCUGGGCAACAUUCCGAGGGGACCGUCCCCGCGGUAAUGGCGAAUGGGACCGA    0.752
GGCCGGCAUGGUCCCAGCCUCCUCGCUGGUGCCGGCUGGGCAACAUUCCGAGGGGACCGUCCCCUCGGUAACGGCGAAUGGGACCCA    0.0959
GGCCGGCAUAGUCCCAGCCUCCUCGCUGGCGCCGGCUCGGCAACAUUCCGAGGGGACCGUCCCCUCGGUAAUGGCGAAUGGGACCCA    0.0692
GGCCGGCAUGGUCCCAGCGUCCUCGCUGGCGCCGGCUGGGCAACAUUCCGAGGGGACCGUCCCCUCGGUAAUGGCGAAUGGGACCCC    0.0849
GGCCGGCAUGGUCCCAGCCUCCUCGCUGGCGCAGGCUGGGCAACAUUCCGAGGGGACCGUCCCUUCGGUAAUGGCGAAUGGGACCCA    0.086

Find the recorded self-cleavage belonging to GGCCGGCAUGGUCCCAGCCACCUCGCUGGCGCCGGCUGGGCAACAUUCCGAGGGGACCGUCCCCUCGGUAAUGGCGGAUGGGACCCA and report it. 0.0723

Field entry: GGCCGGCAUGGUCCCCGCCUCCUCGCUGGCGCCGGCUGGGCAACAUUCCGAGGGGACCGUCCCCUCGGUAAUGGCGAAUGGGACGCA 0.95

GGCCGGCAUGGUCCCAGCCUCCUCGCUGGCGCCGGCUGGGGAACAUUCCGAGGGGACCGUUCCCUCGGUAAUGGCGAAUGGGACCCA , same question. 0.886

Quick one: GGCCGGCAUGGUCCCAGCCUCCUCGCUGGCGCCGGCGGGGCAACAUUCCCAGGGGACCGUCCCCUCGGUAAUGGCGAAUGGGACCCA 0.185

Same read-out for GGCCGGCAUGGUCCCAGCCUCCUCGCUGGCGCCGGCUAGGCCACAUUCCGAGGGGACCGUCCCCUCGGUAAUGGCGAAUGGGACCCA ? 0.148

Now give it for GGCCGGCAUGGUCCCAGCCUCCUCGCUGGCGCCGGCUAGGCAACAUUCCGAGGGGAGCGUCCCCUCGGUAAUGGCGAAUGGGACCCA too. 0.224

Another variant to look at: GGCCGGCAUGGUCCCAGCCUCCUCGCUGGCGCCGGCUGGGCAACAUUCCGAGGGGACCGUCCCCUGGGUAAUGGCGAAUGGGCCCCA 0.178

These entries and their values trace back to the RNAGym collection of RNA variant scans (doi:10.7554/elife.80360).
